Source listed as paper PMC9482650.

Biological target: T1, LIN7B, Q9HAP6
T1 sequence (Q9HAP6 88-185, limits assumed, looked up): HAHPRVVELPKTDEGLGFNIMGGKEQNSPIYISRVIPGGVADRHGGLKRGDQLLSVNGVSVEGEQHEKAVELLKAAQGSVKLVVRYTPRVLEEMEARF
Assay: holdup assay
Set-up: key: below the threshold = too weak to quantify, mostly under pKd 3.1 to 4
Details: plain residues with an end cap or a label only (N-terminal biotin on a linker: ado-ado)

{"binder": "FHSIKQSTAV [CRHR1, P34998]", "pKd": "below the threshold"}
{"binder": "PKSNSSKEYV [CLDN7, O95471]", "pKd": "below the threshold"}
{"binder": "KIEDVEITLV [FCHSD2, O94868]", "pKd": "below the threshold"}
{"binder": "KSRPENGTVC [TMEM178B, H3BS89]", "pKd": "below the threshold"}
{"binder": "ATKDKKITTV [EXOC4, Q96A65]", "pKd": "below the threshold"}
{"binder": "QLKSGRDSTV [TMEM178A, Q8NBL3]", "pKd": "below the threshold"}
{"binder": "THHRKIHTRV [ZNF599, Q96NL3]", "pKd": "below the threshold"}
{"binder": "QRYPGNQTTC [CCL24, O00175]", "pKd": 3.85}
{"binder": "SGDGKTSVWI [GJC1, P36383]", "pKd": 3.74}
{"binder": "VISSDDLTEL [CAPN6, Q9Y6Q1]", "pKd": 3.56}
{"binder": "THREVKFTSL [CD46, P15529]", "pKd": 3.88}
{"binder": "IKLETKKTKL [SLC15A2, Q16348]", "pKd": "below the threshold"}
{"binder": "NKSEPFLTWL [WWTR1, Q9GZV5]", "pKd": "below the threshold"}
{"binder": "QKASRNESTF [POLR1D, P0DPB6]", "pKd": 3.96}
